Reference for the values: patent EP2147919A1

Tested on: VERPE
Assay: Herbicidal action post-emergence (greenhouse pot test, visual rating)
Type: in vivo, Veronica persica
Conditions: Nachauflauf, 1280 g/ha, visual rating after ca. 3 weeks vs untreated controls
Reported herbizide Wirkung VERPE values are given for each entry in this list.

>  <MOLECULE>
Cc1cc(OC(C)C)c(C(=O)NC(c2ccc(F)c(F)c2)c2ccon2)c(Cl)n1 (racemic) [Beispiel 174]

>  <herbizide Wirkung VERPE, %>
100

$$$$
>  <MOLECULE>
COc1ccc(C(NC(=O)c2cn(C)nc2C)c2ccon2)c(F)c1 (stereo not drawn) [Beispiel 266]

>  <herbizide Wirkung VERPE, %>
90

$$$$
>  <MOLECULE>
Cc1cc(Cl)c(C(=O)NC(c2ccc(F)c(F)c2)c2ccon2)c(OC(C)C)n1 (stereo not drawn) [Beispiel 164]

>  <herbizide Wirkung VERPE, %>
80

$$$$
>  <MOLECULE>
COc1ccc(C(NC(=O)c2ccc(C)nc2)c2ccon2)c(F)c1 (stereo not drawn) [Beispiel 212]

>  <herbizide Wirkung VERPE, %>
80

$$$$
>  <MOLECULE>
Cc1nn(C)cc1C(=O)NC(c1ccc(Cl)cc1)c1ccon1 (stereo not drawn) [Beispiel 265]

>  <herbizide Wirkung VERPE, %>
100

$$$$
>  <MOLECULE>
COc1ccc(C(NC(=O)c2c(C)nn(C)c2Cl)c2ccon2)c(F)c1 (stereo not drawn) [Beispiel 261]

>  <herbizide Wirkung VERPE, %>
100

$$$$
